Parameter log10(Ki): see the listing below.
Assay: Binding affinity against Carboxypeptidase A
Parameter value (number): base-10 log of Ki in µM.

Reported log10(Ki) for CCCSCC(Cc1ccccc1)C(=O)O (stereo not drawn) was 2.53

Recorded result, O=C(CC(Cc1ccccc1)C(=O)O)c1ccccc1S (stereo not drawn) , log10(Ki): 0.64

The reported value for CCCCCC(Cc1ccccc1)C(=O)O (stereo not drawn) in terms of log10(Ki) is 2.79

# log10(Ki) (molecule: O=C(O)CC(CSCCS)Cc1ccccc1 (stereo not drawn) ) is 1.28

Noted for NC(=O)C(CCSCCS)Cc1ccccc1 (stereo not drawn) : its log10(Ki) reads 1.96

Note to self: log10(Ki) recorded for O=C(O)C(CCCCS)Cc1ccccc1 (stereo not drawn) was 1.65

log10(Ki) recorded for this molecule, O=C(NC(Cc1ccccc1)C(=O)O)c1ccccn1 (stereo not drawn) , is 2.57

So for O=C(O)C(CSCCS)Cc1ccccc1 (stereo not drawn) , the logged log10(Ki) turned out to be 0.62

----------
Assay: Binding affinity against Carboxypeptidase A
Consider the following compounds and their measured Ki readings.
Enter your answer as a number in µM; do not include the unit.

// solved cases for Ki follow
{"columns": ["compound", "displayUnit", "Ki"],
 "data": [
  ["O=C(O)C(Cc1ccccc1)SCCS (stereo not drawn)", "µM", 21],
  ["NC(=O)C(CSCCS)Cc1ccccc1 (stereo not drawn)", "µM", 29],
  ["O=C(O)c1cccc(C(=O)NC(Cc2ccccc2)C(=O)O)n1 (stereo not drawn)", "µM", 790],
  ["O=C(CC(Cc1ccccc1)C(=O)O)c1ccccn1 (stereo not drawn)", "µM", 82],
  ["O=C(O)C(CCc1ccccc1S)Cc1ccccc1 (stereo not drawn)", "µM", 5.8]
]}

Entry O=C(O)C(Cc1ccccc1)(Cc1ccccc1)SCCSc1ccccc1 — recorded Ki = 450

Record summary for O=C(NC(Cc1ccccc1)C(=O)O)c1cnccn1 (stereo not drawn) : reported Ki = 180

----------
Below, each entry is listed alongside its reported pKi.
Test: Binding affinity against Carboxypeptidase A
Entry type: numeric. Quantity: pKi, the -log10 of concentration in molar units.

The cases that follow already have their pKi on record.
{"columns": ["compound", "assayValue"],
 "data": [
  ["O=C(O)C(Cc1ccccc1)NC/C(=N\\O)c1ccccn1 (stereo unspecified)", 3.24],
  ["O=C(Nc1ccccc1)C(CSCCS)Cc1ccccc1 (stereo unspecified)", 4.47],
  ["O=C(O)C(CSCCSCc1ccccc1)Cc1ccccc1 (stereo unspecified)", 3.18]
]}

Next item in the queue.
Form field pKi, entry O=C(O)C(Cc1ccccc1)SCCSc1ccccc1 (stereo unspecified) : 3.17
